Residual activity of elastase: recorded values
molecular target: porcine pancreatic elastase (Sus scrofa, UniProt P00772); assay: Elastase inhibitory activity of peptides (AAApNA hydrolysis; IC50, Ki, residual activity); assay type: biochemical; details: peptide 1 μM; elastase 0.5 μM, AAApNA 1 mM
Sequence (P00772 27-266): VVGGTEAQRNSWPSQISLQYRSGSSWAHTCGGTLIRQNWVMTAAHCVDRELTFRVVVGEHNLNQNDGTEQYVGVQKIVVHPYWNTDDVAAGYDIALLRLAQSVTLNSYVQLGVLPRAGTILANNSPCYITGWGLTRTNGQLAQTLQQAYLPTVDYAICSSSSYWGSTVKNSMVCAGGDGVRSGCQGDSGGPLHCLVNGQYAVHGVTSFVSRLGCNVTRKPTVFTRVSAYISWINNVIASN
Bridge positions count the residues as written; N and C are the ends. Peptide text beside a SMILES is read from it.
Readout Name: Residual activity of elastase (%)

| Compound | System Name | Obs Value |
| --- | --- | --- |
| CC[C@H](C)[C@H](N)C(=O)N[C@H]1CSSC[C@@H](C(=O)N[C@@H](CCC(N)=O)C(=O)O)NC(=O)[C@H](CCC(N)=O)NC(=O)[C@@H]2CCCN2C(=O)[C@@H]2CCCN2C(=O)[C@H]([C@@H](C)CC)NC(=O)[C@H](CO)NC(=O)[C@H](C)NC(=O)[C@H]([C@@H](C)O)NC1=O [EC19] (H-ICTASIPPQCQ-OH; disulfide 2-10; N-terminus and C-terminus assumed) | porcine pancreatic elastase (Sus scrofa, UniProt P00772) | 52.1 |
| CC[C@H](C)[C@@H]1NC(=O)[C@@H]2CCCN2C(=O)[C@@H]2CCCN2C(=O)[C@H]([C@@H](C)CC)NC(=O)[C@H](CO)NC(=O)[C@H](C)NC(=O)[C@H]([C@@H](C)O)NC(=O)[C@@H](NC(=O)[C@@H](N)Cc2ccc(O)cc2)CSSC[C@@H](C(=O)N[C@@H](CCC(N)=O)C(=O)O)NC1=O [EC29] (H-YCTASIPPICQ-OH; disulfide 2-10; C-terminus assumed) | porcine pancreatic elastase (Sus scrofa, UniProt P00772) | 47.5 |
| CC[C@H](C)[C@@H]1NC(=O)[C@H](CO)NC(=O)[C@H](C)NC(=O)[C@H]([C@@H](C)O)NC(=O)[C@@H](NC(=O)[C@@H](N)CC(C)C)CSSC[C@@H](C(=O)N[C@@H](CCC(N)=O)C(=O)O)NC(=O)[C@H](CCC(N)=O)NC(=O)[C@@H]2CCCN2C(=O)[C@@H]2CCCN2C1=O [EC18] (H-LCTASIPPQCQ-OH; disulfide 2-10; N-terminus and C-terminus assumed) | porcine pancreatic elastase (Sus scrofa, UniProt P00772) | 49.4 |
